# protocol-summary: Bioavailability in rat
# Assay type: ADME, organism-based
# condition-details: in vivo
We begin with a simple list: items and their reported bioavailability.

compound: NS(=O)(=O)c1ccccc1-c1ccc(C(=O)NCCC(=O)Nc2ccc(Br)cn2)cc1
bioavailability: 2.67%
--
compound: NS(=O)(=O)c1ccccc1-c1ccc(C(=O)NC(CC(=O)Nc2ccc(Br)cn2)C(=O)N2CCCCC2)cc1 (stereo not given)
bioavailability: 2.7%
--
compound: NS(=O)(=O)c1ccccc1-c1ccc(C(=O)NC(CC(=O)Nc2ccc(Br)cn2)C(=O)O)cc1 (stereo not given)
bioavailability: 4%
--
compound: CN(C)Cc1ccccc1-c1ccc(C(=O)N[C@@H](CC(=O)Nc2ccc(Cl)cn2)C(=O)N2CCCCC2)cc1
bioavailability: 7.9%
--
compound: CN(C)Cc1ccccc1-c1ccc(C(=O)N[C@H](CC(=O)Nc2ccc(Cl)cn2)C(=O)N2CCCCC2)cc1
bioavailability: 25.9%

----------
We begin with a simple list: items and their reported pIC50.
# protocol-summary: In vitro inhibitory activity against Factor Xa
pIC50: −log10 of the molar value.

molecule: CCC(=O)NC(CC(=O)Nc1ccc(Br)cn1)C(=O)Nc1ccc(-c2ccccc2S(N)(=O)=O)cc1 (stereo not drawn)
qualifier-sign: =
pIC50: 7.44
--
molecule: NS(=O)(=O)c1ccccc1-c1ccc(C(=O)NCCC(=O)Nc2ccc(Cl)cc2)cc1
qualifier-sign: =
pIC50: 7.77
--
molecule: O=C(C[C@@H](NC(=O)c1ccc(-c2ccccc2CN2CCCC2)cc1)C(=O)N1CCCCC1)Nc1ccc(Br)cn1
qualifier-sign: =
pIC50: 9.00
--
molecule: NS(=O)(=O)c1ccccc1-c1ccc(C(=O)NCCC(=O)Nc2ccc(Br)cn2)cc1
qualifier-sign: =
pIC50: 7.92
--
molecule: NS(=O)(=O)c1ccccc1-c1ccc(C(=O)NC(CC(=O)Nc2ccc(Br)cn2)C(=O)N2CCOCC2)cc1 (stereo not drawn)
qualifier-sign: =
pIC50: 7.64
--
molecule: COCCN(C)Cc1ccccc1-c1ccc(C(=O)N[C@H](CC(=O)Nc2ccc(Br)cn2)C(=O)N2CCCCC2)cc1
qualifier-sign: =
pIC50: 8.89
--
molecule: O=C(C[C@H](NC(=O)c1ccc(-c2ccccc2CN2CCCC2)cc1)C(=O)N1CCCCC1)Nc1ccc(Cl)cn1
qualifier-sign: =
pIC50: 8.57
--
molecule: NS(=O)(=O)c1ccccc1-c1ccc(C(=O)NCCNS(=O)(=O)c2ccc(Cl)cc2)cc1
qualifier-sign: <
pIC50: 5.00

----------
We begin with a simple list: items and their reported pIC50.
# protocol-summary: In vitro inhibitory activity against Factor Xa
pIC50: −log10 of the molar value.

molecule: NS(=O)(=O)c1ccccc1-c1ccc(NC(=O)CCC(=O)Nc2ccc(Cl)cc2)cc1
pIC50: 7.92
--
molecule: CN(C)C(=N)c1ccc(C(=O)N[C@H](CC(=O)Nc2ccc(Cl)cn2)C(=O)N2CCCCC2)cc1
pIC50: 7.92
--
molecule: COCCN(C)Cc1ccccc1-c1ccc(C(=O)N[C@@H](CC(=O)Nc2ccc(Cl)cn2)C(=O)N2CCCCC2)cc1
pIC50: 8.03
--
molecule: NS(=O)(=O)c1ccccc1-c1ccc(NC(=O)C(CC(=O)Nc2ccc(Br)cn2)NC(=O)C2CCNCC2)cc1 (centres undefined)
pIC50: 6.71
--
molecule: NS(=O)(=O)c1ccccc1-c1ccc(C(=O)NCCNS(=O)(=O)c2ccc3cc(Br)ccc3c2)cc1
pIC50: 5.03
--
molecule: NS(=O)(=O)c1ccccc1-c1ccc(C(=O)NCCNS(=O)(=O)c2cc3ccc(Cl)cc3s2)cc1
pIC50: 5.96
--
molecule: CN(C)CCNC(=O)C(CC(=O)Nc1ccc(Br)cn1)NC(=O)c1ccc(-c2ccccc2S(N)(=O)=O)cc1 (centres undefined)
pIC50: 7.30
--
molecule: CN(C)Cc1nccn1-c1ccc(C(=O)N[C@@H](CC(=O)Nc2ccc(Br)cn2)C(=O)N2CCCCC2)cc1
pIC50: 6.48
--
molecule: NS(=O)(=O)c1ccccc1-c1ccc(C(=O)NC(CC(=O)Nc2ccc(Br)cn2)C(=O)N2CCCCC2)cc1 (centres undefined)
pIC50: 8.12

Source of measurements: ChEMBL document CHEMBL1137135
